- Assay Info: protein stability index of a GFP-peptide fusion (GPS, HEK-293T) (PSI 1-6); higher = more stable;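 further: 24-mer peptide tiles fused after GFP, lentivirally expressed, FACS-sorted into six equal bins by GFP/DsRed ratio, decoded by Illumina sequencing, PSI is the read-weighted mean bin number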
- Settings: treatment: MLN4924 1 uM, 8 h; c terminus: a fixed tail appended
# label = bin(measured protein stability index), where bins are c1: < 3; c2: ≥ 3 and < 5; c3: ≥ 5

Hello team, could you let me know which band the following sequence falls into: GQVIWGMSWAKLARQATNLKVNFF [FBXO39] c1

For this sequence, which bin applies? QPLADEGPPGRSIGGAAPSLGALD [SERTAD1] c3

Which bin, given its protein stability index, does HHHGRSRPDRSSQGGSLPSEEKGH [CHGB] occupy? c3

Further cases:
Where would TSRAPSTYTYTSRPRALPCQRSRY [RSPH3] land among the classes by reported protein stability index? c2

Record LPPTPLLLFPEEEATNGREGLLRF [AUP1] — which class? c2

Textbook exercise: identify the category of the sequence given here, RLLQEEDRRKKIARMGFNASSMLR [DCAF4] , according to its measured value. c1

Into which bin does this sequence go? EKYGAVREVILKELAEATWCGIST [ZBED1] c1

# classify by protein stability index band: KRKRVDVEESEASSSVSISHSASA [LMNB1] c3
